- measured-target: HLA-B*58:01
- test-details: IEDB peptide-MHC binding, purified MHC/competitive/fluorescence; filed as Kd, often an IC50 or EC50 that approximates it; bounds were set here for any values at or beyond the usual limits of such assays
- test-context: source organism: Cryptosporidium parvum Iowa II
recorded-endpoint: Kd

Just so you know, measured Kd for "TVFRNQNRV" came out at ≥ 5 µM

###

- measured-target: HLA-B*57:01
- test-details: IEDB peptide-MHC binding, purified MHC/competitive/fluorescence; filed as Kd, often an IC50 or EC50 that approximates it; bounds were set here for any values at or beyond the usual limits of such assays
- test-context: source organism: Yersinia pestis Antiqua
pKd: −log10 of the molar value.
recorded-endpoint: pKd

Just so you know, measured pKd for "PLTNQRYRV" came out at ≤ 4.70

###

- measured-target: HLA-B*08:01
- test-details: IEDB peptide-MHC binding, purified MHC/competitive/radioactivity; filed as Kd, often an IC50 or EC50 that approximates it; bounds were set here for any values at or beyond the usual limits of such assays
- test-context: source organism: Dengue virus 3 Martinique/1243/1999
recorded-endpoint: Kd (nM)
Unit nM implied. Number only.

HLA-B*08:01 data for "VMAVGLVSIL" ; its Kd: 154

###

- measured-target: HLA-B*08:01
- test-details: IEDB peptide-MHC binding, purified MHC/direct/fluorescence; filed as Kd, often an IC50 or EC50 that approximates it; bounds were set here for any values at or beyond the usual limits of such assays
- test-context: source organism: Escherichia coli O157:H7
pKd: −log10 of the molar value.
recorded-endpoint: pKd

DISPTNIPL	≤ 4.70
DPRDDLSGM	≤ 4.70

Let's switch to this sequence now.
Just so you know, measured pKd for "ATISYRIKL" came out at ≤ 4.70

###

- measured-target: HLA-B*51:01
- test-details: IEDB peptide-MHC binding, purified MHC/competitive/fluorescence; filed as Kd, often an IC50 or EC50 that approximates it; bounds were set here for any values at or beyond the usual limits of such assays
- test-context: source organism: Homo sapiens
pKd: −log10 of the molar value.
recorded-endpoint: pKd

RTDNGGWAH	≤ 4.70

Let's switch to this sequence now.
HLA-B*51:01 data for "GTEYRLTLY" ; its pKd: ≤ 4.70

###

- measured-target: HLA-B*45:06
- test-details: IEDB peptide-MHC binding, purified MHC/competitive/fluorescence; filed as Kd, often an IC50 or EC50 that approximates it; bounds were set here for any values at or beyond the usual limits of such assays
- test-context: source organism: Yersinia pestis KIM10+
pKd: −log10 of the molar value.
recorded-endpoint: pKd

Just so you know, measured pKd for "SRWAISHWL" came out at ≤ 5.30

###

Item-by-item account of log10 of Kd
- measured-target: HLA-A*11:01
- test-details: IEDB peptide-MHC binding, purified MHC/competitive/radioactivity; filed as Kd, often an IC50 or EC50 that approximates it; bounds were set here for any values at or beyond the usual limits of such assays
- test-context: source organism: Vaccinia virus WR
log10 Kd, nM

LSSKGLACY	3.74
KLSSIKSKSR	4.00

Let's switch to this sequence now.
Just so you know, measured log10 of Kd for "NITLKIIETY" came out at 2.62

###

Item-by-item account of IC50
- measured-target: HLA-A*02:01
- test-details: IEDB peptide-MHC binding, purified MHC/competitive/fluorescence; bounds were set here for any values at or beyond the usual limits of such assays
- test-context: source organism: West Nile virus NY-99
Unit nM implied. Number only.

SLTSINVQA	503

Let's switch to this sequence now.
Just so you know, measured IC50 for "SLFGQRIEV" came out at 204
